For each of the sequences below, state its switch fluorescence ratio.
System: ATP;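 further: ATP exposure 15 min at 22 °C before imaging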
measurementProtocol: switch fluorescence ratio, 500 uM ATP over buffer (Cy3 cluster intensity, sum of 5 cycles each) (fold (ratio)); higher = stronger signal-on switching upon ATP binding; sequences stand for … in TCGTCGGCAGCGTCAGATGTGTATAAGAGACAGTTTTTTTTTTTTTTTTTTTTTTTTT…TC
testContext: aptamer strand: ATP DNA aptamer (quencher-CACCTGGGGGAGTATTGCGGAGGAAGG + anchor), 100 nM annealed; ATP concentration: 500 uM

These recorded examples may help you get a feel for the data.
ATAAAGATAG 1
TGTTTATCAT 0.978
AGTCGAGCTA 0.986

Please look at the items below and tell me switch fluorescence ratio for each one, in order.
1. TTGTTTTGGT
2. TCGGTCGTGC
3. TTAGTAAAGG
4. ATTGAGCGGA
5. AGAATTATTG

Result:
1: 0.966; 2: 1.03; 3: 1.01; 4: 1.04; 5: 0.994

Please look at the items below and tell me switch fluorescence ratio for each one, in order.
1. GAGTTAATTG
2. GAGGTTTAAT
3. CGTATTCTGA
4. CCGATGATTG
5. GGTTGGCTTT

Result:
[1.01, 0.981, 0.966, 1.08, 1.01]

Please look at the items below and tell me switch fluorescence ratio for each one, in order.
1. GGGCGCTTCT
2. ATATTTGGTT
3. TATGTTTTTA
4. GTAACCCCGG
5. GTGCAAGGGT
6. TGATGCATAT
7. TGATATAGTG

Result:
[0.991, 0.985, 1.02, 1.07, 1.01, 1.14, 1]

Please look at the items below and tell me switch fluorescence ratio for each one, in order.
1. TGTGATGGGT
2. TAGGATTTTT
3. ATCGAATAGG
4. GCTTGATTGG
5. GGGGGTAGAG
6. ATGCTTATAC

Result:
[0.996, 1.03, 0.987, 1.04, 0.988, 2.31]

Please look at the items below and tell me switch fluorescence ratio for each one, in order.
1. ATGTCCACTT
2. TTAACTCGAC

Result:
1: 1; 2: 1.07

Please look at the items below and tell me switch fluorescence ratio for each one, in order.
1. TAGTGATGGT
2. AACTCCCTTT
3. AGTATGCATA

Result:
0.973
1.07
0.951

Please look at the items below and tell me switch fluorescence ratio for each one, in order.
1. GCCATGTCGA
2. AAGTGGTGCT
3. GTGGTTTATA
4. TTGGGGTGGG
5. TTTGCTTAGG

Result:
0.992
1.02
1.01
1.01
0.993

Please look at the items below and tell me switch fluorescence ratio for each one, in order.
1. AAGGACGCTG
2. GTGGTATCCG
3. CTCTAATTTT
4. GGGGTATGAG

Result:
1: 0.991; 2: 0.973; 3: 1.01; 4: 0.972

Data provenance: the supplement of paper PMC10126150
